- Tested on: TOB3A (RNA, aptamer) GGCACGAGGUUUAGCUACACUCGUGCC
- reported conditions: column head extracted as (M), μ lost
measured endpoint: Dissociation Constants (M)

Guide cases for Dissociation Constants, answers given:
>  <structure string>
NC[C@H]1O[C@H](O[C@H]2[C@H](O)[C@@H](O[C@H]3O[C@H](CO)[C@@H](O)[C@H](N)[C@H]3O)[C@H](N)C[C@@H]2N)[C@H](N)C[C@@H]1O

>  <Dissociation Constants / M>
2.4e-07

$$$$
>  <structure string>
NC[C@@H]1O[C@H](O[C@H]2[C@@H](O)[C@H](O[C@@H]3[C@@H](O)[C@H](N)C[C@H](N)[C@H]3O[C@H]3O[C@H](CN)[C@@H](O)[C@H](O)[C@H]3N)O[C@@H]2CO)[C@H](N)[C@@H](O)[C@@H]1O

>  <Dissociation Constants / M>
2.2e-06

$$$$
>  <structure string>
NC[C@H]1O[C@H](O[C@H]2[C@H](O)[C@@H](O[C@H]3O[C@H](CO)[C@@H](O)[C@H](N)[C@H]3O)[C@H](N)C[C@@H]2N)[C@H](O)[C@@H](O)[C@@H]1O

>  <Dissociation Constants / M>
7.38e-05

$$$$

a. NC[C@H]1O[C@H](O[C@H]2[C@H](O)[C@@H](O[C@H]3O[C@H](CO)[C@@H](O)[C@H](N)[C@H]3O)[C@H](N)C[C@@H]2N)[C@H](N)[C@@H](O)[C@@H]1O
b. NC[C@@H]1O[C@H](O[C@H]2[C@@H](O)[C@H](O[C@@H]3[C@@H](O)[C@H](N)C[C@H](N)[C@H]3O[C@H]3O[C@H](CO)[C@@H](O)[C@H](O)[C@H]3N)O[C@@H]2CO)[C@H](N)[C@@H](O)[C@@H]1O
[ask] Among a and b , which shows a numerically higher Dissociation Constants result? Kindly give the label for the entry you pick.
[reply] b

----------
- Test system: 16S (16S rRNA Decoding region) (RNA, rRNA) GGCGUCACACCUUCGGGUGAAGUCGCC
- reported conditions: column head extracted as (M), μ lost
measured endpoint: Dissociation Constants (M)

>  <structure string>
NC[C@@H]1O[C@H](O[C@H]2[C@@H](O)[C@H](O[C@@H]3[C@@H](O)[C@H](N)C[C@H](N)[C@H]3O[C@H]3O[C@H](CO)[C@@H](O)[C@H](O)[C@H]3N)O[C@@H]2CO)[C@H](N)[C@@H](O)[C@@H]1O

>  <unit of measurement>
M

>  <Dissociation Constants>
5.31e-06

$$$$
>  <structure string>
NC[C@H]1O[C@H](O[C@H]2[C@H](O)[C@@H](O[C@H]3O[C@H](CO)[C@@H](O)[C@H](N)[C@H]3O)[C@H](N)C[C@@H]2N)[C@H](N)[C@@H](O)[C@@H]1O

>  <unit of measurement>
M

>  <Dissociation Constants>
8.9e-06

$$$$

P. NC[C@H]1O[C@H](O[C@H]2[C@H](O)[C@@H](O[C@H]3O[C@H](CO)[C@@H](O)[C@H](N)[C@H]3O)[C@H](N)C[C@@H]2N)[C@H](N)C[C@@H]1O
Q. NC[C@@H]1O[C@H](O[C@H]2[C@@H](O)[C@H](O[C@@H]3[C@@H](O)[C@H](N)C[C@H](N)[C@H]3O[C@H]3O[C@H](CN)[C@@H](O)[C@H](O)[C@H]3N)O[C@@H]2CO)[C@H](N)[C@@H](O)[C@@H]1O
R. NC[C@H]1O[C@H](O[C@H]2[C@H](O)[C@@H](O[C@H]3O[C@H](CO)[C@@H](O)[C@H](N)[C@H]3O)[C@H](N)C[C@@H]2N)[C@H](O)[C@@H](O)[C@@H]1O
[ask] Please order the records by their reported Dissociation Constants, lowest number first. Please respond with the labels ordered as the question requires.
[reply] Q, P, R
(Q: 1.93e-06 M, P: 1.03e-05 M, R: 3.71e-05 M)
